Molecular target: human Farnesoid X Receptor (FXR) ligand binding domain (GST-FXR LBD) (Homo sapiens, UniProt Q96RI1)
Sequence (Q96RI1 193-472 isoform Q96RI1-2): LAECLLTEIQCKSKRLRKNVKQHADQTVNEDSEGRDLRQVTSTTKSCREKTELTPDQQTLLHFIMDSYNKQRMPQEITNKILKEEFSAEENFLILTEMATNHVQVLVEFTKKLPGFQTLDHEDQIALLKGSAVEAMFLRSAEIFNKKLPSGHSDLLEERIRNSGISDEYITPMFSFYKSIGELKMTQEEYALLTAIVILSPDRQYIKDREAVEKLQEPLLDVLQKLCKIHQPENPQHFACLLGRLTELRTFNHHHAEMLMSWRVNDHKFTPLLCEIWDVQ
Assay: Human GST-FXR LBD co-activator interaction assay (FXR HTRF assay)
Details: ligand-dependent interaction of GST-FXR LBD with biotin-labeled SRC-1 peptide, response relative to GW4064, read-out: FXR coactivator interaction assay (HTRF)
Listing of entries alongside the reported EC50.
State just the number; it will be interpreted in nM.

// solved cases for EC50 follow
Cn1nccc1NC(=O)CN(Cc1ccccc1F)C(=O)c1nn(C)c2c1COc1ccc(Cl)cc1-2 :: 1610
Cn1nc(C(=O)N(CC(=O)NC2CCC(O)CC2)Cc2ccccc2F)c2c1-c1cc(Cl)ccc1OC2 (stereo not shown) :: 717
Cn1nc(C(=O)N(CC(=O)NCC2CC2)CC2CCOCC2)c2c1-c1cc(Cl)ccc1OC2 :: 608

EC50 lookup needed for Cn1nc(C(=O)N(CC(=O)NC2CC2(F)F)Cc2ccccc2F)c2c1-c1cc(Cl)ccc1OC2 (stereo not shown) , thanks. 87

Reported EC50, molecule `Cn1nc(C(=O)N(CC(=O)NC2CCCC2)Cc2ccccc2F)c2c1-c1cc(Cl)ccc1OC2` : ____ 64

Reported EC50 for `Cn1nc(C(=O)N(CC(=O)NCC2CC2)Cc2c(F)cccc2F)c2c1-c1cc(Cl)ccc1OC2` : what is it? 13

Which EC50 value belongs to Cn1nc(C(=O)N(CC(=O)NC2CC2(F)F)Cc2cccc(F)c2)c2c1-c1cc(Cl)ccc1OC2 (stereo not shown) ? 21

Which EC50 is listed for `Cn1nc(C(=O)N(Cc2ccccc2)Cc2ccc(S(C)(=O)=O)cc2)c2c1-c1cc(Cl)ccc1OC2` ? 605

Fill blank: measured EC50 of the molecule `CC(C)C(=O)NCCN(Cc1cccc(F)c1)C(=O)c1nn(C)c2c1COc1ccc(Br)cc1-2` is ____. 18

For the molecule `Cn1nc(C(=O)N(CC(=O)NC2CC2)Cc2ccccc2F)c2c1-c1cc(Cl)ccc1OC2` , what EC50 is on record? 31

Any idea what EC50 was measured for Cn1nc(C(=O)N(CC(=O)NCC(C)(O)C(F)(F)F)Cc2ccccc2F)c2c1-c1cc(Cl)ccc1OC2 (stereo not shown) ? 33

Suppose we examine the molecule `Cn1nc(C(=O)N(CC(=O)NCC2CC2)Cc2cccc(F)c2F)c2c1-c1cc(Cl)ccc1OC2` ; what EC50 value has been reported? 12

Which EC50 is reported for this molecule? `Cn1nc(C(=O)N(Cc2ccccc2)Cc2cccc(F)c2)c2c1-c1cc(Cl)ccc1OC2` 509

# query: EC50 of entry `Cn1nc(C(=O)N(CC(=O)NC(C)(C)C)Cc2ccccc2F)c2c1-c1cc(Cl)ccc1OC2` 190
